All values here come from PubChem BioAssay (NCI).

- Tested on: SK-OV-3 ovarian
- test: NCI-60 one-dose screen, 48 h (100 = growth as untreated, 0 = no growth, -100 = all killed)
- condition-notes: 10 µM unless noted
About 83,000 compounds went through this panel and 20% of them were active in at least one assay; those are over-represented in the sample as a whole. Activity calls are given as the source filed them. The calls were made as follows: active = growth percent below 10; inactive = the rest.
Can you tell me growth for the items I'm about to list?

Looking for the measured growth of Cc1cc(Nc2nc(N3CCNCC3)nc3ccccc23)n[nH]1 , can you help?
27% (inactive)

Looking for the measured growth of COc1ccc(C(=O)c2sc3nc4c(c(C(F)(F)F)c3c2N)CN(C(C)=O)CC4)cc1OC , can you help?
87.2% (inactive)

Looking for the measured growth of NCCN1CCN(c2nccc(-c3ccc4ccccc4c3)n2)CC1 , can you help?
88.6% (inactive)

Looking for the measured growth of COc1ccc(C(=O)/C=C/c2c(Cl)c3c(c(OC)c2Cl)OCC(=O)N3)cc1 , can you help?
77.9% (inactive)

Looking for the measured growth of CC1=CC(=O)CC(C)(C)[C@@]1(O)/C=C/[C@@H](C)O , can you help?
113% (inactive)

Looking for the measured growth of NC(=S)N/N=C/c1ccc(OCc2ccccc2)cc1 , can you help?
80% (inactive)

Looking for the measured growth of CCCCCCCCCCCCN1CCCC(C)C1 (centres undefined) , can you help?
88.3% (inactive)

Looking for the measured growth of COc1ccc(/C=C2\N=C3Sc4cc(Cl)ccc4C(=O)N3C2=O)cc1 , can you help?
98.1% (inactive)

Looking for the measured growth of CN1CCN(Cc2ccc(NC(=O)c3cncc(C#Cc4cncc5nccnc45)c3)cc2C(F)(F)F)CC1 , can you help?
74.7% (inactive)

Looking for the measured growth of CCOC(=O)c1cnc2ccc(OC)cc2c1Nc1cccc(S(=O)(=O)NC)c1 , can you help?
113% (inactive)

Looking for the measured growth of CS(=O)(=O)c1ccc(-c2cnc3ccc(-c4cccc(S(C)(=O)=O)c4)nn23)cc1 , can you help?
43.4% (inactive)

Looking for the measured growth of COc1ccc(/C=C/C(=O)c2ccc(NC(=O)c3cc4cc5ccccc5nc4s3)cc2)cc1OC , can you help?
106% (inactive)

Looking for the measured growth of CCCCCCCCCCCCS(=O)CC(C)O (centres undefined) , can you help?
102% (inactive)

Looking for the measured growth of CN1CCN(Cc2ccc(NC(=O)c3[nH]ncc3Nc3ncnc4c3CCC4)cc2)CC1 , can you help?
24.5% (inactive)

Looking for the measured growth of O=C(COc1cccc(/C=C2/Oc3ccccc3C2=O)c1)Nc1nccs1 , can you help?
266% (inactive)

Looking for the measured growth of CC/C(Cc1ccccc1)=C(\c1ccc(OCCN2CCCC2)cc1)c1ccc(OC(C)=O)cc1 , can you help?
107% (inactive)

Looking for the measured growth of C=CC[N+]1(CCO)CCN=C1CCCCCCCCCCCCC (centres undefined) , can you help?
-48.6% (active)

Looking for the measured growth of O=C(/C=C/c1cc2ccccc2[nH]c1=O)/C=C/c1cc2ccccc2[nH]c1=O , can you help?
8.82% (active)

Looking for the measured growth of CCN(CC)Cc1cc(Nc2c3ccc(Cl)cc3nc3c(C)cccc23)ccc1O , can you help?
-10.3% (active)

Looking for the measured growth of COc1ccc(-c2csc(NC(=O)CN3CCN(c4cc5c(cc4F)c(=O)c(C(=O)O)cn5C4CC4)CC3)n2)cc1 , can you help?
-4.37% (active)

Looking for the measured growth of O=C(NC(Cc1ccccc1)C(=O)CCl)OCc1ccccc1 (centres undefined) , can you help?
87.8% (inactive)

Looking for the measured growth of CC(C)(C)c1nn(-c2ccccc2)c2c1CC1(CN2Cc2ccc3c(c2)OCO3)C(=O)c2ccccc2C1=O , can you help?
115% (inactive)

Looking for the measured growth of CCCCCCCCCCCCCCCC(=O)OCC1OC(n2cnc3c(=S)nc(N)[nH]c32)C(OC(=O)CCCCCCCCCCCCCCC)C1OC(=O)CCCCCCCCCCCCCCC (centres undefined) , can you help?
20.8% (inactive)

Looking for the measured growth of O=C1/C(=C/c2ccc(Cl)cc2Cl)CN(S(=O)(=O)c2ccccc2)C/C1=C\c1ccc(Cl)cc1Cl , can you help?
44.7% (inactive)

Looking for the measured growth of O=C1C(=O)N(CCCCn2cc(CO)nn2)c2ccccc21 , can you help?
100% (inactive)

Looking for the measured growth of Cc1cc2cc3cc(C)c(N(C)C)cc3[n+](C)c2cc1N(C)C , can you help?
20.2% (inactive)

Looking for the measured growth of COc1cc(-c2cc(-c3nc4ccc(Cl)cc4[nH]3)[nH]n2)cc(OC)c1OC , can you help?
61.7% (inactive)

Looking for the measured growth of NC(N)=Nc1ccc(S(=O)(=O)O)cc1 , can you help?
96.7% (inactive)

Looking for the measured growth of COc1ccc(/C=c2/c(=O)[nH]c3nc4sc(C)c(C)c4c(=O)n23)cc1 , can you help?
102% (inactive)

Looking for the measured growth of CCOC(=O)c1ccc2c(c1)nc(/C=C/c1ccc(Cl)cc1)n2-c1cc(C(C)(C)C)[nH]n1 , can you help?
43.3% (inactive)

Looking for the measured growth of COc1ccc(-c2c(C)noc2-c2ccc(O)cc2O)cc1 , can you help?
94.1% (inactive)

Looking for the measured growth of CCCCNP1(NCCCC)=NP(NCCCC)(NCCCC)=NP(NCCCC)(NCCCC)=NP(NCCCC)(NCCCC)=N1 , can you help?
7.65% (active)

Looking for the measured growth of CC/C(Cc1ccccc1)=C(/c1ccc(O)cc1)c1ccc(OCCN2CCCC2)cc1 , can you help?
63% (inactive)

Looking for the measured growth of O=C(CN1CCN(c2cc3c(cc2F)c(=O)c(C(=O)O)cn3C2CC2)CC1)Nc1cc(=O)[nH]c(=O)[nH]1 , can you help?
110% (inactive)

Looking for the measured growth of O=[N+]([O-])c1cccc(-c2nc3sccn3c2-c2ccnc(NCCCNS(=O)(=O)c3cccc(F)c3)n2)c1 , can you help?
44.6% (inactive)

Looking for the measured growth of CC[C@H](CO)Nc1nc(NCc2ccccc2)n2ncc(C(C)C)c2n1 , can you help?
51.5% (inactive)

Looking for the measured growth of O=C(N/N=C/c1ccc(O)cc1O)c1cccnc1 , can you help?
46.8% (inactive)

Looking for the measured growth of CCC(C)[C@@H]1NC(=O)[C@@H]2CCCN2C(=O)[C@H](Cc2ccccc2)NC(=O)[C@@H]2CCCN2C(=O)[C@H](Cc2ccccc2)NC(=O)[C@@H]2CCCN2C(=O)[C@H](Cc2ccccc2)NC1=O (some centres undefined) , can you help?
103% (inactive)

Looking for the measured growth of COc1ccc2nc(NC(=O)c3cccnc3Nc3cc(OC)c(OC)c(OC)c3)sc2c1 , can you help?
-40.4% (active)
